Cited source: patent US10266548B2

ASSAY TARGET: catalytic domain of human Bub1 (amino acids 704-1085) (Homo sapiens (Human), UniProt O43683)
Sequence (O43683 704-1085): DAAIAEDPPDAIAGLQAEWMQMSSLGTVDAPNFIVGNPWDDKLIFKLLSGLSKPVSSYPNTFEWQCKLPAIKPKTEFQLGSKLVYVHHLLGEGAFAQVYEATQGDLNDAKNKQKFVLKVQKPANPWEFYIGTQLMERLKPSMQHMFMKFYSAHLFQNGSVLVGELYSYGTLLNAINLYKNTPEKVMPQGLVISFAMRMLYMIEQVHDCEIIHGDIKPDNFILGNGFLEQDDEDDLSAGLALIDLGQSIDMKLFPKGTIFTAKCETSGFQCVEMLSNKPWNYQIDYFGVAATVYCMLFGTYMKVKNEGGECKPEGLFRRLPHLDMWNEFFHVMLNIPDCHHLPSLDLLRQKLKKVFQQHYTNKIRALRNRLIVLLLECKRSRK
Listed here are compounds together with their documented log10 IC50.
MEASURE: log10 IC50 (log10 of the value in nM)

- COMPOUND: "CCOc1cc(F)c(Cn2nc(-c3nccc(N(CCO)c4ccncc4)n3)c3ccccc32)c(F)c1"
  OBSERVED: 2.23
- COMPOUND: "CCOc1cc(F)c(Cn2nc(-c3nccc(N(C(=O)C4CCOCC4)c4ccncc4)n3)c3ccccc32)c(F)c1"
  OBSERVED: 2.32
- COMPOUND: "COc1cnc(-c2nn(Cc3cccc4c3OCCCO4)c3ccccc23)nc1Nc1ccncc1"
  OBSERVED: 1.77
- COMPOUND: "CCOc1cc(F)c(Cn2nc(-c3ncc(OCCO)c(Nc4ccncc4)n3)c3ccccc32)c(F)c1 [Example 15-3]"
  OBSERVED: 0.76
- COMPOUND: "COc1cnc(-c2nn(Cc3ccccc3F)c3ccccc23)nc1Nc1ccncc1"
  OBSERVED: 1.11

* * *

ASSAY TARGET: catalytic domain of human Bub1 (amino acids 704-1085) (Homo sapiens (Human), UniProt O43683)
Listed here are compounds together with their documented IC50.
MEASURE: IC50 (nM)

- COMPOUND: "COc1cnc(-c2nn(Cc3c(Cl)cccc3Cl)c3ccccc23)nc1Nc1ccncc1 [Example 15-4]"
  OBSERVED: 7.3
- COMPOUND: "CN(C)CCOc1cnc(-c2nn(Cc3ccccc3F)c3ccccc23)nc1Nc1ccncc1"
  OBSERVED: 14
- COMPOUND: "CCOc1cc(F)c(Cn2nc(-c3ncc(OC[C@H]4CCC(=O)N4)c(Nc4ccncc4)n3)c3ccccc32)c(F)c1"
  OBSERVED: 10
- COMPOUND: "CCOc1cc(F)c(Cn2nc(-c3ncc(OC)c(Nc4ccncc4C(N)=O)n3)c3ccccc32)c(F)c1"
  OBSERVED: 8.8

* * *

Test system: Caco2 cells
PROCEDURE DETAILS: Proliferation assay (Caco2 cell line)
Assay type: cell-based
TEST CONTEXT: Homo sapiens, Caco-2, 96 h, read-out: Biological Assay 2: Proliferation assay (Caco2 cell line) median IC50
MEASURE: IC50 (nM)

- COMPOUND: "COC(=O)c1ccc(CN(c2ccncc2)c2nc(-c3nn(Cc4ccc(C(=O)OC)cc4Cl)c4ccccc34)ncc2OC)c(Cl)c1"
  SCALE UNIT: "nM"
  OBSERVED: 8000
- COMPOUND: "COc1ccc(Cn2nc(-c3nccc(Nc4ccncc4)n3)c3ccccc32)cc1"
  SCALE UNIT: "nM"
  OBSERVED: 3000
- COMPOUND: "CCOc1cc(F)c(Cn2nc(-c3ncc(OCC(O)CN4CCCCC4)c(Nc4ccncc4)n3)c3ccccc32)c(F)c1 (stereo not drawn)"
  SCALE UNIT: "nM"
  OBSERVED: 780
